Assay: collision cross section of modified peptide (TIMS, N2, iRT-aligned); higher = larger / more extended gas-phase ion
Conditions: charge state: 2; modification: hydroxyisobutyryl
Assign collision cross section to each entry below.
Field format: number, assumed Å², no unit text.

collision cross section reading for GAEKTEVAEPR [_GAEK(hydroxyisobutyryl)TEVAEPR_] : 376.1

collision cross section reading for LDHLAEKFR [_LDHLAEK(hydroxyisobutyryl)FR_] : 375.94

collision cross section reading for AAINQKLIETGER [_AAINQK(hydroxyisobutyryl)LIETGER_] : 409.76

collision cross section reading for VYIASSSGSTAIKK [_VYIASSSGSTAIK(hydroxyisobutyryl)K_] : 417.04

collision cross section reading for TTGFYSGFSEVAEKR [_TTGFYSGFSEVAEK(hydroxyisobutyryl)R_] : 444.06

collision cross section reading for LGNDFHTNKR [_LGNDFHTNK(hydroxyisobutyryl)R_] : 382.96

collision cross section reading for SLGEPAAGEGSAKR [_SLGEPAAGEGSAK(hydroxyisobutyryl)R_] : 389.47

collision cross section reading for INNFSADIKDSK [_INNFSADIK(hydroxyisobutyryl)DSK_] : 408.19

collision cross section reading for ITLSKHQNVQLPR [_ITLSK(hydroxyisobutyryl)HQNVQLPR_] : 443.83

collision cross section reading for DVNAAIAAIKTK [_DVNAAIAAIK(hydroxyisobutyryl)TK_] : 392.68

----------
Assign collision cross section to each entry below.
Experiment: collision cross section of modified peptide (TIMS, N2, iRT-aligned); higher = larger / more extended gas-phase ion
Conditions: charge state: 2; modification: Methyl (K)
Field format: number, assumed Å², no unit text.

collision cross section reading for VFIGNLNTLVVKK [_VFIGNLNTLVVK(Methyl (K))K_] : 423.04

collision cross section reading for GTVPDDAVEALADSLGKK [_GTVPDDAVEALADSLGK(Methyl (K))K_] : 482.51

collision cross section reading for SGNLTEDDKHNNAK [_SGNLTEDDK(Methyl (K))HNNAK_] : 417.49

collision cross section reading for FVDSKVGEFSGANK [_FVDSK(Methyl (K))VGEFSGANK_] : 434.66

collision cross section reading for IINEPTAAAIAYGLDKK [_IINEPTAAAIAYGLDK(Methyl (K))K_] : 488.76

collision cross section reading for DLSTVEALQNLKNLK [_DLSTVEALQNLK(Methyl (K))NLK_] : 475.78

collision cross section reading for GAEKTEVAEPR [_GAEK(Methyl (K))TEVAEPR_] : 369.74

collision cross section reading for GETASKLQSEISR [_GETASK(Methyl (K))LQSEISR_] : 400.35

collision cross section reading for FSAYIKNSNPALNDNLEK [_FSAYIK(Methyl (K))NSNPALNDNLEK_] : 493.27

collision cross section reading for ALLQAKASGK [_ALLQAK(Methyl (K))ASGK_] : 342.45

----------
Assay: collision cross section of modified peptide (TIMS, N2, iRT-aligned); higher = larger / more extended gas-phase ion
Conditions: charge state: 2; modification: hydroxyisobutyryl
Assign collision cross section to each entry below.
Field format: number, assumed Å², no unit text.

collision cross section reading for VDIDAPDVSIEGPDAKLK [_VDIDAPDVSIEGPDAK(hydroxyisobutyryl)LK_] : 475

collision cross section reading for LLEEEDSKLK [_LLEEEDSK(hydroxyisobutyryl)LK_] : 385.85

collision cross section reading for SGNLTEDDKHNNAK [_SGNLTEDDK(hydroxyisobutyryl)HNNAK_] : 427.86

collision cross section reading for VQGGALEDSQLVAGVAFKK [_VQGGALEDSQLVAGVAFK(hydroxyisobutyryl)K_] : 481.48

collision cross section reading for GGPGSTLSFVGKR [_GGPGSTLSFVGK(hydroxyisobutyryl)R_] : 388.57

collision cross section reading for IQQELQTAKK [_IQQELQTAK(hydroxyisobutyryl)K_] : 386.63

collision cross section reading for TGGTQTDLFTCGKCK [_TGGTQTDLFTCGK(hydroxyisobutyryl)CK_] : 448.92

collision cross section reading for SDDESSQKDIK [_SDDESSQK(hydroxyisobutyryl)DIK_] : 383.53

collision cross section reading for ANEKTESSSAQQVAVSR [_ANEK(hydroxyisobutyryl)TESSSAQQVAVSR_] : 442.41

collision cross section reading for KFGVLSDNFK [_K(hydroxyisobutyryl)FGVLSDNFK_] : 378.39
